Test system: 596521-263-R-J1-PDC complex spheroid growth
Assay: Anticancer human tumor 596521-263-R-J1-PDC patient-derived soft tissue sarcoma cell line growth inhibition [Asc]
Conditions: second compound 0.1 µM; first compound 0.316 µM; hits give low values
Description: Multicellular complex tumor spheroid response to apoptosis pathway targeting inhibitors Alrizomadlin, Pelcitoclax, and Dasminapant in combination with a variety of drugs and investigational agents in selected tumor cell lines […] Compounds. […] If the clinical Cmax for an agent had not been determined, the highest concentration tested was 10 microM. […]
The following molecules are shown together with reported viability, T/C values.
metric-name: viability, T/C

molecule	target-or-test-system	metric-name	experimental-value
O=C(c1cc(Cc2n[nH]c(=O)c3ccccc23)ccc1F)N1CCN(C(=O)C2CC2)CC1 + CNC(C)C(=O)NC1CN(S(=O)(=O)c2cccc(S(=O)(=O)N3CCC4CCC(C(=O)NC(c5ccccc5)c5ccccc5)N4C(=O)C(NC(=O)C(C)NC)C3)c2)CCC2CCC(C(=O)NC(c3ccccc3)c3ccccc3)N2C1=O	596521-263-R-J1-PDC complex spheroid growth	viability, T/C	75.5%
COc1c(OCCCN2CCOCC2)ccc2c3n(c(=NC(=O)c4cnc(N)nc4)nc12)CCN3 + Cc1c(S(C)(=O)=O)c(-c2cc(F)cc(N3CCN(c4ccc(NS(=O)(=O)c5ccc(NC(CCN6CCC(C(=O)OCCCP(=O)(O)O)CC6)CSc6ccccc6)c(S(=O)(=O)C(F)(F)F)c5)cc4)CC3)c2)c(-c2ccc(Cl)cc2)n1C(C)C	596521-263-R-J1-PDC complex spheroid growth	viability, T/C	37.6%
O=C(c1ccc(F)c(F)c1Nc1ccc(I)cc1F)N1CC(O)([C@@H]2CCCCN2)C1 + Cc1c(S(C)(=O)=O)c(-c2cc(F)cc(N3CCN(c4ccc(NS(=O)(=O)c5ccc(NC(CCN6CCC(C(=O)OCCCP(=O)(O)O)CC6)CSc6ccccc6)c(S(=O)(=O)C(F)(F)F)c5)cc4)CC3)c2)c(-c2ccc(Cl)cc2)n1C(C)C	596521-263-R-J1-PDC complex spheroid growth	viability, T/C	45.5%

----------
tested on: 596521-263-R-J1-PDC complex spheroid growth; assay: Anticancer human tumor 596521-263-R-J1-PDC cell line growth inhibition [Asc]; settings: second compound 0.00949 µM; first compound 0.0316 µM; hits give low values;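 note: spheroids exposed to compounds for 7 days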
// reported viability, T/C for each item listed

compound	viability, T/C [%]
NC1CCC(NC2CC2c2ccccc2)CC1 (stereo not drawn) + CCN1C(C(=O)NC23CCC(C(=O)O)(CC2)CC3)C(c2cccc(Cl)c2F)C2(C(=O)Nc3cc(Cl)ccc32)C12CCCCC2	83.7
C=C(F)C(=O)N1CCN(c2nc(OCC3CCCN3C)nc3c2CCN(c2cccc4cccc(Cl)c24)C3)CC1CC#N (stereo not drawn) + CCN1C(C(=O)NC23CCC(C(=O)O)(CC2)CC3)C(c2cccc(Cl)c2F)C2(C(=O)Nc3cc(Cl)ccc32)C12CCCCC2	106
O=C(c1cc(Cc2n[nH]c(=O)c3ccccc23)ccc1F)N1CCN(C(=O)C2CC2)CC1 + CCN1C(C(=O)NC23CCC(C(=O)O)(CC2)CC3)C(c2cccc(Cl)c2F)C2(C(=O)Nc3cc(Cl)ccc32)C12CCCCC2	101

----------
Measured viability, T/C accompanies every entry in the list below.
test system: 596521-263-R-J1-PDC complex spheroid growth; test: Anticancer human tumor 596521-263-R-J1-PDC cell line growth inhibition [Asc]; settings: second compound 0.1 µM; first compound 0.1 µM; hits give low values;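 note: spheroids exposed to compounds for 7 days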
metric-name: viability, T/C (%)

compound	experimental-value
CCN1CCN(Cc2ccc(Nc3ncc(F)c(-c4cc(F)c5nc(C)n(C(C)C)c5c4)n3)nc2)CC1 + CNC(C)C(=O)NC1CN(S(=O)(=O)c2cccc(S(=O)(=O)N3CCC4CCC(C(=O)NC(c5ccccc5)c5ccccc5)N4C(=O)C(NC(=O)C(C)NC)C3)c2)CCC2CCC(C(=O)NC(c3ccccc3)c3ccccc3)N2C1=O	86
O=C(c1ccc(F)c(F)c1Nc1ccc(I)cc1F)N1CC(O)([C@@H]2CCCCN2)C1 + Cc1c(S(C)(=O)=O)c(-c2cc(F)cc(N3CCN(c4ccc(NS(=O)(=O)c5ccc(NC(CCN6CCC(C(=O)OCCCP(=O)(O)O)CC6)CSc6ccccc6)c(S(=O)(=O)C(F)(F)F)c5)cc4)CC3)c2)c(-c2ccc(Cl)cc2)n1C(C)C	70.2
C=C(F)C(=O)N1CCN(c2nc(OCC3CCCN3C)nc3c2CCN(c2cccc4cccc(Cl)c24)C3)CC1CC#N (configuration not stated) + Cc1c(S(C)(=O)=O)c(-c2cc(F)cc(N3CCN(c4ccc(NS(=O)(=O)c5ccc(NC(CCN6CCC(C(=O)OCCCP(=O)(O)O)CC6)CSc6ccccc6)c(S(=O)(=O)C(F)(F)F)c5)cc4)CC3)c2)c(-c2ccc(Cl)cc2)n1C(C)C	97.9
CCN1CCN(Cc2ccc(Nc3ncc(F)c(-c4cc(F)c5nc(C)n(C(C)C)c5c4)n3)nc2)CC1 + Cc1c(S(C)(=O)=O)c(-c2cc(F)cc(N3CCN(c4ccc(NS(=O)(=O)c5ccc(NC(CCN6CCC(C(=O)OCCCP(=O)(O)O)CC6)CSc6ccccc6)c(S(=O)(=O)C(F)(F)F)c5)cc4)CC3)c2)c(-c2ccc(Cl)cc2)n1C(C)C	81.1
Cn1ncnc1[C@H]1c2n[nH]c(=O)c3cc(F)cc(c23)N[C@@H]1c1ccc(F)cc1 + Cc1c(S(C)(=O)=O)c(-c2cc(F)cc(N3CCN(c4ccc(NS(=O)(=O)c5ccc(NC(CCN6CCC(C(=O)OCCCP(=O)(O)O)CC6)CSc6ccccc6)c(S(=O)(=O)C(F)(F)F)c5)cc4)CC3)c2)c(-c2ccc(Cl)cc2)n1C(C)C	74.5
O=C(c1cc(Cc2n[nH]c(=O)c3ccccc23)ccc1F)N1CCN(C(=O)C2CC2)CC1 + Cc1c(S(C)(=O)=O)c(-c2cc(F)cc(N3CCN(c4ccc(NS(=O)(=O)c5ccc(NC(CCN6CCC(C(=O)OCCCP(=O)(O)O)CC6)CSc6ccccc6)c(S(=O)(=O)C(F)(F)F)c5)cc4)CC3)c2)c(-c2ccc(Cl)cc2)n1C(C)C	102
Cn1ncnc1[C@H]1c2n[nH]c(=O)c3cc(F)cc(c23)N[C@@H]1c1ccc(F)cc1 + CNC(C)C(=O)NC1CN(S(=O)(=O)c2cccc(S(=O)(=O)N3CCC4CCC(C(=O)NC(c5ccccc5)c5ccccc5)N4C(=O)C(NC(=O)C(C)NC)C3)c2)CCC2CCC(C(=O)NC(c3ccccc3)c3ccccc3)N2C1=O	60.3
